B1: HDV Ribozyme (parent)
chain: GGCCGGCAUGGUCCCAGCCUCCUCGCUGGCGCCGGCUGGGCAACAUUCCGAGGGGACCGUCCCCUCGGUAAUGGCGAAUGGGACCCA

variants of: B1; assay: self-cleavage, relative activity (ratio to wild type); higher = more cleavage; co-transcriptional
quantity-name: self-cleavage
Answer using only a numeral; do not append any unit.

sequence-variant: G2A A71C
data-value: 0.13
--
sequence-variant: G73A G74C
data-value: 0.176

Problem: Note self-cleavage for the variant shown: A45G A77G
Result: 0.867

Problem: Note self-cleavage for the variant shown: A8C A70C
Result: 0.612

Problem: Note self-cleavage for the variant shown: G31A G59C
Result: 0.348

Problem: Note self-cleavage for the variant shown: U46G G82C
Result: 0.158

Problem: Note self-cleavage for the variant shown: C41G A45U
Result: 0.594

Problem: Note self-cleavage for the variant shown: C14U U37G
Result: 0.199

Problem: Note self-cleavage for the variant shown: G10A C15G
Result: 0.166

Problem: Note self-cleavage for the variant shown: C26G A51G
Result: 0.997

Problem: Note self-cleavage for the variant shown: G2C A56C
Result: 0.0678

Problem: Note self-cleavage for the variant shown: G34C U72A
Result: 0.17

Problem: Note self-cleavage for the variant shown: A45U A51G
Result: 0.965

Problem: Note self-cleavage for the variant shown: U23A A71U
Result: 0.831

Problem: Note self-cleavage for the variant shown: C7G G52A
Result: 0.151

Problem: Note self-cleavage for the variant shown: C4U U37G
Result: 0

Problem: Note self-cleavage for the variant shown: G10A G81A
Result: 0.187

Problem: Note self-cleavage for the variant shown: G28A U60G
Result: 0.0386

Problem: Note self-cleavage for the variant shown: U12C C14A
Result: 0.18

Problem: Note self-cleavage for the variant shown: G40C C48G
Result: 0.35

Problem: Note self-cleavage for the variant shown: C33G A87G
Result: 0.116

Problem: Note self-cleavage for the variant shown: C26U A87C
Result: 0.953
